# experimentalSystem: SMYD3 (Homo sapiens (Human), UniProt Q9H7B4)
# Sequence (Q9H7B4 whole entry): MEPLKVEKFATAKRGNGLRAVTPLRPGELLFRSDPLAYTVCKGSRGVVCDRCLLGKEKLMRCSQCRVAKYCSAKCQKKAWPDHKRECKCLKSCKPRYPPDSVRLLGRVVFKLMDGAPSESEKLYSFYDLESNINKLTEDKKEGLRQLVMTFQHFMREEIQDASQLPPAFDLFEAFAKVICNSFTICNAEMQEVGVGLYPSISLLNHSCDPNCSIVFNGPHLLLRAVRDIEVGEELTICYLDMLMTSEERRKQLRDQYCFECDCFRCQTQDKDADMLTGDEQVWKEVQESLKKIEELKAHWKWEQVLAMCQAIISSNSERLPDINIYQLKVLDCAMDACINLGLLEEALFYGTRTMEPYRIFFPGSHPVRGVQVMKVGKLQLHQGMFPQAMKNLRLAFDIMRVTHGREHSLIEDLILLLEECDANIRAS
# assayDetails: SMYD3 cell assay (Trimethyl-MEKK2 In-Cell Western in 293T/17 cells)
# Type: cell-based
# conditionSet: read-out: SMYD3 Cell IC50 (μM)*
experimentalReadout: IC50 (µM)
One number for each entry, in µM.

Take a look at these entries with their results.
{"compound": "C[C@@H]1C[C@H](NC(=O)c2cc(C3CC3)on2)CCN1S(=O)(=O)CCCN [compound 189]", "observedResult": 1.24}
{"compound": "C[C@H]1CC(NC(=O)c2cc(C3CC3)on2)CCN1S(=O)(=O)CCN (some centres unmarked) [compound 78]", "observedResult": 0.792}
{"compound": "NCCCS(=O)(=O)N1CCC(NC(=O)c2cc(C3CC3)on2)CC1 [compound 210]", "observedResult": 2.9}
{"compound": "O=C(NC1CCN(C(=O)CC2CCNCC2)C(Cc2ccccc2)C1)c1cc(C2CC2)on1 (centres unmarked) [compound 109]", "observedResult": 1.93}
{"compound": "N[C@H]1CC[C@H](C(=O)N2CC3CCC2CC3NC(=O)c2cc(C3CC3)on2)CC1 (some centres unmarked) [compound 88]", "observedResult": 2.5}

Can you give me IC50 for all of these, one by one?
1. NC[C@@H](Cc1ccc(O)c(Cl)c1)C(=O)N1CCC(NC(=O)c2cc(C3CC3)on2)CC1 [compound 63]
2. C[C@@H]1CN(C(=O)[C@H]2CC[C@H](N)CC2)CC[C@@H]1NC(=O)c1cc(C2CC2)on1 [compound 148]
3. C[C@@H]1CC(NC(=O)c2cc(C3CC3)on2)CCN1C(=O)C1CC2(CC(N)C2)C1 (some centres unmarked) [compound 175]

[reply]
1.44
1.81
0.983
